Study Target: T1, GFP-9S library array, motif 4 ND N98V;D124Q (synthetic construct, N98V;D124Q)
T1 chain: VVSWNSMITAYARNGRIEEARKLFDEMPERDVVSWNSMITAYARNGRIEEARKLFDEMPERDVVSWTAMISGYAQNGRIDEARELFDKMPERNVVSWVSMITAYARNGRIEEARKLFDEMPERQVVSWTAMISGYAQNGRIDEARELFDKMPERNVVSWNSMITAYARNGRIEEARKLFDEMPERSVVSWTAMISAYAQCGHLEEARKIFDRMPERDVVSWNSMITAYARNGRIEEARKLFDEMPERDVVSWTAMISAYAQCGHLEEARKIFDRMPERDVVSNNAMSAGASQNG
Protocol Text: high-throughput RNA pulldown from lysate on Ni-NTA beads; HRP: 50 mM Tris pH 8, 150 mM NaCl, 1 mM beta-mercaptoethanol, 50 ug/ml BSA, 3 ug/ml yeast RNA, 0.5% heparin; ITC and FP: Tris pH 8, 200 mM KCl, 5% glycerol; MST: 50 mM Tris pH 8, 200 mM NaCl, 1 mM DTT, BSA, heparin, 0.05% Tween 20
Reported Conditions: tags: N-terminal His-eGFP; label: 5' IRDye 800CW
Measured Kd values are reported for all entries that follow.
Give the value; after it, write the unit.

[[record]]
binder = "AUUAUACGUGA (ssRNA) [IR-rpoA-U]"
measurement_name = "Kd"
result = "167 nM"


Continue with the next binder.
## Task Tell us which Kd value is on record for AUUAAACGUGA (ssRNA) [IR-rpoA-A]
## Result 166 nM
